tested on: human Jurkat T cells; assay: In vitro mRNA transfection efficiency (eGFP fluorescence), flow cytometry; type: cell-based; settings: 100 ng mRNA per well, 44-hour incubation, eGFP fluorescence, FIG. 17B
measurementName: transfection efficiency (%)
Please give a number only; it is taken to be in %.

{"compound": "CCCCCCCCC(CCCCCC)COC(=O)CCCCCN(CCCCCC(=O)OCC(CCCCCC)CCCCCCCC)CCN(CCN(C)C)C1CCC1 (centres unmarked)", "assayTarget": "human Jurkat T cells", "measurementName": "transfection efficiency", "unitsSymbol": "%", "observedValue": 92}
{"compound": "CCCCCCCCC(CCCCCC)COC(=O)CCCCCN(CCCCCC(=O)OCC(CCCCCC)CCCCCCCC)CCN(CCO)C1CCC1 (centres unmarked)", "assayTarget": "human Jurkat T cells", "measurementName": "transfection efficiency", "unitsSymbol": "%", "observedValue": 59}
{"compound": "CCCCCCCCC(CCCCCC)COC(=O)CCCCCN(CCCCCC(=O)OCC(CCCCCC)CCCCCCCC)CCN(C)C (centres unmarked) [Control 2, reference compound]", "assayTarget": "human Jurkat T cells", "measurementName": "transfection efficiency", "unitsSymbol": "%", "observedValue": 80}

Turning to the following compound.
transfection efficiency in this record for CCCCCCCCC(CCCCCC)COC(=O)CCCCCN(CCCCCC(=O)OCC(CCCCCC)CCCCCCCC)CCN(CCCN(C)C)C1CCC1 (centres unmarked) : 78

Numbers sourced from patent US20250325492A1.
